Source: ChEMBL document CHEMBL1799979

# key: entry, value: IC50
- target entity: UniProt:P00376
- Sequence (P00376 whole entry): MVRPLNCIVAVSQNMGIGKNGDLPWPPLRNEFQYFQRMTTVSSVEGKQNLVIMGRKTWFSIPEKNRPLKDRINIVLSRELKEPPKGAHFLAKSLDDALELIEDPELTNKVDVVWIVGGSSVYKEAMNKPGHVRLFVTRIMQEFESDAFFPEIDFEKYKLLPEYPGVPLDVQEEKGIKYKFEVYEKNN
Report the figure along with its unit, number first.

smiles entry	IC50
N#Cc1ccc(OCCCON2C(N)=NC(N)=NC23CCCC3)cc1	7.6 nM
Cl.NC1=NC2(CCCC2)N(OCCCOc2ccc(Cl)cc2)C(N)=N1	7.2 nM
NC1=NC2(CCCCC2)N(OCCCOc2ccc(S(N)(=O)=O)cc2)C(N)=N1	5.6 nM

Input: Write down the reported IC50 of Cc1ccc(OCCCON2C(N)=NC(N)=NC23CCCCC3)cc1 , test system: UniProt:P00376.
Output: 17.5 nM

Input: // map NC1=NC2(CCCCC2)N(OCCCOc2ccc(Cl)cc2)C(N)=N1 to recorded IC50 (system: UniProt:P00376)
Output: 13.8 nM

Input: Record lookup: for UniProt:P00376, what IC50 belongs to NC1=NC2(CCCCC2)N(OCCCOc2ccc([N+](=O)[O-])cc2)C(N)=N1 ?
Output: 14.7 nM

Input: Observed IC50 on UniProt:P00376 for NC1=NC2(CCCC2)N(OCCCOc2ccc(F)cc2)C(N)=N1 , please.
Output: 10.1 nM

Input: Return IC50 measured with UniProt:P00376 given this compound: N#Cc1ccc(OCCCON2C(N)=NC(N)=NC23CCCCC3)cc1
Output: 9.7 nM
